Source listed as a melting point compilation (Tetko et al.).

Record form. Attribute: melting point. Fill in for each entry.

sample smiles: COC(=O)c1ccc(NC(C)=O)c(C)c1
melting point: 132 to 134 °C
--
sample smiles: CN1C(=O)C(C(N)=NO)=C(N)C12CCCC2
melting point: 210 to 212 °C
--
sample smiles: COc1cc(/C(C)=N\O)ccc1OCc1ccccc1
melting point: 117 to 119 °C
--
sample smiles: Cc1cc(NC(=O)c2ccccc2Cl)sc1C(=O)O
melting point: 223 to 225 °C

Provide reported melting point for each item, in the same order as listed.
1. O=c1[nH]nc2cnccn12
2. O=C(O)CCc1cc(Br)cs1

RESULT:
229 to 231 °C
76 to 78 °C

QUERY: If you can, please state the reported melting point value of `CC(C)(C)c1ccc(-c2cc(N)on2)cc1` .
RESULT: 148 to 150 °C

====

observable: melting point

Solved cases below.
molecule: Cc1ccc(C)n1-c1ccsc1C(=O)O
melting point: 185 to 187 °C
//
molecule: Cc1ccc(/C=C/S(=O)(=O)Cl)cc1
melting point: 111 to 113 °C
//
molecule: Nc1ccncc1C(=O)C(F)(F)F
melting point: 170 to 172 °C
//
molecule: O=S1(=O)N=C(Cl)c2ccccc21
melting point: 121 to 123 °C
//
molecule: N#Cc1cc(Cl)ccc1S(=O)(=O)Cl
melting point: 97 to 99 °C

Provide reported melting point for each item, in the same order as listed.
1. CC(N)(C#N)Cn1cc(Br)cn1 (configuration not stated)
2. O=C(CCl)Nc1ccccc1Br

RESULT:
60 to 62 °C
78 to 80 °C

====

Record form. Attribute: melting point. Fill in for each entry.

compound: COc1cc(OC)cc(Oc2ccc(C=O)cc2)c1
melting point: 57 to 59 °C
--
compound: COC(=O)c1c[nH]c(=O)c(C#N)c1
melting point: 264 to 266 °C
--
compound: NC(=O)Cc1ccc(Br)cc1
melting point: 194 to 196 °C
--
compound: NC(=O)c1cc(-c2csc(N)n2)c[nH]1
melting point: 235 to 237 °C
--
compound: O=S(=O)(Cl)c1cnccc1Cl
melting point: 45 to 47 °C

Provide reported melting point for each item, in the same order as listed.
1. Cc1ccc(C(N)Cn2ccnc2)c(C)c1 (stereo unspecified)
2. N#Cc1cn(-c2ccccc2[N+](=O)[O-])nc1N
3. CSc1cccc(NC(=O)C(C)Cl)c1 (stereo unspecified)

RESULT:
1: 79 to 81 °C; 2: 188 to 190 °C; 3: 81 to 83 °C

Provide reported melting point for each item, in the same order as listed.
1. Cn1ncc(CN)c1N
2. Cc1ccccc1-n1nc(C(C)(C)C)cc1N
3. CS(=O)(=O)N1CCc2cc(C(=O)O)ccc21
4. Nc1nc(Cl)c(Cl)cc1[N+](=O)[O-]
5. CCOC(=O)Nc1ccc(C(=O)O)cc1

RESULT:
["91 to 93 °C", "112 to 114 °C", "230 to 232 °C", "126 to 128 °C", "170 to 172 °C"]

Provide reported melting point for each item, in the same order as listed.
1. O=C(O)CCC1Cc2ccccc2NC1=O (stereo unspecified)
2. Cc1ccc2c(c1)OC(C)C(=O)N2 (stereo unspecified)

RESULT:
1. 174 to 176 °C
2. 154 to 156 °C

Provide reported melting point for each item, in the same order as listed.
1. CNCc1nnn[nH]1
2. Cn1cc(OCc2ccccc2)c(=O)cc1CO
3. Cc1cc(C(=O)O)sc1-c1ccc(F)cc1
4. CS(=O)(=O)N1CCN(c2ccc(N)cn2)CC1
5. COCCn1c(S)nc2ccccc21
6. COc1ccc(C(=O)Nc2ccccc2C(=O)O)cc1

RESULT:
1: 224 to 226 °C; 2: 221 to 223 °C; 3: 206 to 208 °C; 4: 178 to 180 °C; 5: 127 to 129 °C; 6: 184 to 186 °C

====

observable: melting point

compound: CN(C)C(=O)Cn1cnc(N)n1
melting point: 135 to 137 °C
//
compound: COC(=O)c1ccc(S(=O)(=O)Cl)cn1
melting point: 119 to 121 °C
//
compound: Cn1c(N)nccc1=O
melting point: 257 to 259 °C
//
compound: Cc1ccc(Cl)c2ccc(N)nc12
melting point: 104 to 106 °C

Provide reported melting point for each item, in the same order as listed.
1. Nc1c(I)cc(I)cc1I
2. CNCc1cc(Br)ccc1[N+](=O)[O-]
3. COC(=O)C1(N)CCS(=O)(=O)CC1
4. CC(O)c1cccc(O)c1 (stereo not drawn)
5. NC(Cc1ccccc1)CN1CCOCC1 (stereo not drawn)

RESULT:
["187 to 189 °C", "29 to 31 °C", "124 to 126 °C", "112 to 114 °C", "54 to 56 °C"]

Provide reported melting point for each item, in the same order as listed.
1. Cc1ccc(N(C(=O)CCl)C2C=CS(=O)(=O)C2)cc1C (stereo not drawn)
2. NC(=O)CN1CC(C(=O)O)CC1=O (stereo not drawn)
3. O=C1NCCS1
4. Cc1c(NC(=O)CCCl)c(=O)n(-c2ccccc2)n1C
5. COc1cc(C)c(S(=O)(=O)Cl)cc1C
6. Nc1nc(-c2ccccc2)cn1/N=C/c1ccccc1

RESULT:
["136 to 138 °C", "169 to 171 °C", "51 to 53 °C", "207 to 209 °C", "98 to 100 °C", "202 to 204 °C"]

Provide reported melting point for each item, in the same order as listed.
1. O=C(c1ccccc1)C1CCOCC1
2. O=S(=O)(c1ccc(CCl)cc1)C(F)F
3. CCn1cc(C(=O)O)c(C(C)C)n1
4. Cn1cnc([N+](=O)[O-])c1CCl
5. Fc1ccc(Oc2ccncc2)c(Br)c1
6. N#Cc1cc2c(nc1N)CCC2

RESULT:
["57 to 59 °C", "63 to 65 °C", "122 to 124 °C", "127 to 129 °C", "74 to 76 °C", "205 to 207 °C"]

Provide reported melting point for each item, in the same order as listed.
1. CC(C)(C)C(N)c1nc(-c2nnc[nH]2)no1 (stereo not drawn)
2. O=C(O)c1csc(-c2ccsc2)n1
3. NC(=S)c1ccoc1
4. O=C(c1ccc(F)cc1)c1ccccn1
5. Nc1n[nH]c2c(Cl)cccc12
6. CC(C)(CO)N1C(=O)c2ccccc2C1=O

RESULT:
1. 169 to 171 °C
2. 165 to 167 °C
3. 103 to 105 °C
4. 83 to 85 °C
5. 189 to 191 °C
6. 65 to 67 °C

Provide reported melting point for each item, in the same order as listed.
1. COCc1cc(Cl)n2ncnc2n1
2. Nc1nc(CCl)nc2sc3c(c12)CCCCC3

RESULT:
104 to 106 °C
174 to 176 °C

Provide reported melting point for each item, in the same order as listed.
1. Cc1ncc([N+](=O)[O-])cc1C(=O)O
2. O=C(O)c1cnc2sccn2c1=O
3. O=C(O)C1C2CCCCC21 (stereo not drawn)
4. O=C(O)CCn1cc(Br)cn1
5. O=C(O)c1cn(-c2ccccc2)nc1-c1ccc(Cl)s1
6. O=C(O)C1CCN(c2ccccc2Br)C1=O (stereo not drawn)

RESULT:
210 to 214 °C
269 to 271 °C
86 to 88 °C
112 to 114 °C
209 to 211 °C
164 to 166 °C

Provide reported melting point for each item, in the same order as listed.
1. OCCn1nccc1C1CCNCC1
2. O=C(O)c1cc(S(=O)(=O)Cl)cc(Br)c1Cl
3. CNc1nc(C(=O)O)cs1
4. ON=C1CCN(Cc2ccccc2)CC1

RESULT:
126 to 128 °C
160 to 162 °C
204 to 206 °C
126 to 128 °C

Provide reported melting point for each item, in the same order as listed.
1. COC(=O)c1cc(C)cc([N+](=O)[O-])c1N
2. CC(C)(C)OC(=O)N1CCC(N2CC(O)C2)CC1

RESULT:
1. 106 to 108 °C
2. 91 to 93 °C

====

Record form. Attribute: melting point. Fill in for each entry.

Solved cases below.
compound: CC(C)NC(=O)OCC(F)(F)F
melting point: 48 to 50 °C
--
compound: O=C(O)CSc1nnc(-c2ccccc2)o1
melting point: 169 to 171 °C
--
compound: O=C(CCl)Cc1c(F)cccc1Cl
melting point: 37 to 39 °C
--
compound: c1ccc(Nc2ccccn2)cc1
melting point: 78 to 82 °C
--
compound: CC(C)(C)OC(=O)NC(C)(C)c1noc(CCl)n1
melting point: 79 to 81 °C
--
compound: O=C1Nc2ccc(-c3ccccc3)cc2C1=O
melting point: 214 to 216 °C
--
compound: O=C(O)C1CCCN1C(=O)c1ccc([N+](=O)[O-])o1 (stereo not drawn)
melting point: 154 to 156 °C
--
compound: O=C1CCCCN1c1ccc(Br)cc1F
melting point: 96 to 98 °C
--
compound: COc1ccc(C)cc1NCCCC(=O)O
melting point: 99 to 101 °C
--
compound: Cc1[nH]c2ccc(F)cc2c1C=O
melting point: 215 to 217 °C

Provide reported melting point for each item, in the same order as listed.
1. Nc1ccc(CCN2CCOCC2)cc1
2. O=C(CCl)c1ccc2c(c1)CCC2
3. CCOc1ccc(C(=O)N2CCCC(C(=O)O)C2)cc1OCC (stereo not drawn)
4. OCc1cnc(N2CCOCC2)s1
5. Nc1ccc(S(=O)(=O)Nc2cccc(F)c2)cc1
6. O=S(=O)(Cl)c1ccc(Cl)cc1C(F)(F)F
7. Cc1nc(-c2ccc(F)c(F)c2)sc1C(=O)O

RESULT:
["87 to 89 °C", "47 to 58 °C", "189 to 191 °C", "101 to 103 °C", "168 to 170 °C", "45 to 47 °C", "209 to 211 °C"]
